Study System: T1, human CNTN4-rabbit Fc (human; rabbit, UniProt Q8IWV2 19-1000, limits assumed)
T1 construct: not shown: rabbit Fc
T1 sequence (looked up): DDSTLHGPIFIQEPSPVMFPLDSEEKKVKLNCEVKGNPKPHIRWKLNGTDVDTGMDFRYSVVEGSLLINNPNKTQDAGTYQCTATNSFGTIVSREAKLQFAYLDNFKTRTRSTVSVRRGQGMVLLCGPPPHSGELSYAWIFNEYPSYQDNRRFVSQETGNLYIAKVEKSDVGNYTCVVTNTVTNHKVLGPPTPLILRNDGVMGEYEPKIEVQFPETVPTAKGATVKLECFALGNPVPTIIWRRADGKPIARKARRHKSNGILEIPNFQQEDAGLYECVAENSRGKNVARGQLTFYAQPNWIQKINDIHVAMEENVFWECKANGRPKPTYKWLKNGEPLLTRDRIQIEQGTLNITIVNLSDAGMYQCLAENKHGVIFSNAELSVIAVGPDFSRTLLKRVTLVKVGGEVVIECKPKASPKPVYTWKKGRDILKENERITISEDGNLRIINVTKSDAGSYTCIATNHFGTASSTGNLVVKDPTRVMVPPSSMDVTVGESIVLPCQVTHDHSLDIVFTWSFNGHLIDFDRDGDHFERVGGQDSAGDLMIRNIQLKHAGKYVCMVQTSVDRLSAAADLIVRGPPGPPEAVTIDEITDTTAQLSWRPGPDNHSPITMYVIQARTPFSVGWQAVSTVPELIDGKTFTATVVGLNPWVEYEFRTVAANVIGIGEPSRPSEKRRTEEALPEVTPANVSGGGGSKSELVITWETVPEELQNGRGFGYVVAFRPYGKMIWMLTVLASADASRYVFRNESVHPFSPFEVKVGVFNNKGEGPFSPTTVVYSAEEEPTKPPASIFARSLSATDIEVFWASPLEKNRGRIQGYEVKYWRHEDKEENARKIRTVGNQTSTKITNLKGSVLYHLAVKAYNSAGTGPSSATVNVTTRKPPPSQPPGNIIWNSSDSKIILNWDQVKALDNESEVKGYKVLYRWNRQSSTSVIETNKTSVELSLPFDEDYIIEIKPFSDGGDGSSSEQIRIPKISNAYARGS
Protocol Details: ELISA, plate coated with antigen-rabbit Fc, anti-human IgG Fc-HRP
Recorded Endpoint: pEC50
Recall that pEC50 is obtained by taking minus log10 of the concentration measured in molar.

Illustrative cases are given below, each with its answer.
Binder	Result Number
anti-CNTN4 IgG A13SF8 (antibody, V domains shown, human IgG4 (S228P)) VH: AVTLDESGGGLHTPGGALSLVCKASGFTFSSYGMAWVRQAPGKGLEWVAGITSSGSSAGYGPAVKGRATISRDNGQSTVRLQLNNLRAEDTATYYCAKDGYIYSGADSDSIDAWGHGTEVIVSS VL: ALTQPSSVSANPGGTVKITCSGSGNYGWYQQKSPGSALVTVIYYNDKRPSDIPSRFSGSTSGSTGTLTITGVQVEDEAVYYCGGYDGYSFASIFGAGTTLTVL	11.00
anti-CNTN4 IgG A35SF38 (antibody, V domains shown, human IgG4 (S228P)) VH: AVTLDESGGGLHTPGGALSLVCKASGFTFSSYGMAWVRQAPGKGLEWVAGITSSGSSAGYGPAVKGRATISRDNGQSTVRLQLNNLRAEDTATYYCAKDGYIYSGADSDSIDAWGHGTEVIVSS VL: ALTQPSSVSANLGGTVKLTCSGSSGSYGWYQQKSPGSAPVTLIYNNNNRPSDIPSRFSGSTSGSTGTLTITGVRAEDEAVYFCGGYDSSTYVAIFGAGTTLTVL	11.00
anti-CNTN4 IgG A13SF7 (antibody, V domains shown, human IgG4 (S228P)) VH: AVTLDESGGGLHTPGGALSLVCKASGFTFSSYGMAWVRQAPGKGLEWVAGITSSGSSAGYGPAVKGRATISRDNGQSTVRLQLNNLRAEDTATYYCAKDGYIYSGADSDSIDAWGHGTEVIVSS VL: ALTQPSSVSANLGGTVEITCSGGSGSYGWYQQKSPGSAPVTLIYDNTNRPSNIPSRFSGSTSGSTSTLTITGVQADDEAVYFCGSADTNAAYAAIFGAGTTLTVL	11.00

Inquiry: Entry under review: anti-CNTN4 IgG A35SF39 (antibody, V domains shown, human IgG4 (S228P)) VH: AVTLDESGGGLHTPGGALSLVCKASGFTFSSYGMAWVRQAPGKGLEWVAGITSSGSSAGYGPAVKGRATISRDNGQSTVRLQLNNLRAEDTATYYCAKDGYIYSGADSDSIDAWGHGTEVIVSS VL: ALTQPSSVSANLGGTVKITCSGGSGSYGWYQQKSPGSAPVTVIYNNNNRPSDIPSRFSGSTSGSTGTLTITGVRAEDEAVYFCGGYDTDSPIFGAGTTLTVL . Reported pEC50?
Reply text: 11.00

Inquiry: For the binder shown here, anti-CNTN4 IgG A13SF74 (antibody, V domains shown, human IgG4 (S228P)) VH: AVTLDESGGGLQTPGGALSLVCKASGFTLSSYAMQWVRQAPGKGLEWVAGISKGGGSTAYGAAVKGRATISRDNGQSTVRLQLNNLRAEDTATYFCAKTTDSNCCSSDSIDAWGHGTEVIVSS VL: ALTQPSSVSANPGETVKITCSGNSSGCSWYGWFQQKSPGSALVTVIYDNTNRPSNIPSRFSGSRSGSTATLTITGVQAEDEAIYFCGIADSSGAGIFGAGTTLTVL , give the reported pEC50.
Reply text: 9.96
